# credit: patent US20110318339A1

studyTarget: T1, recombinant human DLL4 (Cat# 1506-D4/CF, R&D Systems) (human, UniProt Q9NR61 27-529)
T1 construct: Bought protein; also called hDLL4; rHuman DLL4
assay: SPR (ProteOn), hDLL4 amine-coupled on chip
# cutoff 0.07 s⁻¹ applies to koff; >= gives Criterion met, < gives Criterion not met

Is koff at least 0.07 s⁻¹? Consider Fab VH1-46_IGHD6-6*01_IGHJ1*01 S102A/S103P/S104F/H111F I51V/N52L/S54T/G56H & L6_IGKJ1*01 S28N/S30D/S31H S52L/A55S (Fab, V domains shown, Fab made in E. coli: VH on CH1 with His6 and Flag tags (Plasmid A), VL on kappa CL (Plasmid C); also called H: APFF VLTH & L: NDH LS) VH: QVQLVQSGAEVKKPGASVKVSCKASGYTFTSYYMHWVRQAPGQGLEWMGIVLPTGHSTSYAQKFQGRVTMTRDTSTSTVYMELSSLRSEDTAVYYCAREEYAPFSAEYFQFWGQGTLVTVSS VL: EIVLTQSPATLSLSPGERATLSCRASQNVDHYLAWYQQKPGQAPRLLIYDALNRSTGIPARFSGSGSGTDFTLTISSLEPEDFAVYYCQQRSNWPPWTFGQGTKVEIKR
Criterion not met

Is koff at least 0.07 s⁻¹? Consider Fab VH5-51_IGHD5-18*01>3_IGHJ4*01 G100K/G104T G24T/S28R/G35V & V3-4_IGLJ1*01 V91L/S96P (Fab, V domains shown, Fab made in E. coli: VH on CH1 with His6 and Flag tags (Plasmid A), VL on lambda CL (Plasmid E); also called H: KT TRV & L: LP) VH: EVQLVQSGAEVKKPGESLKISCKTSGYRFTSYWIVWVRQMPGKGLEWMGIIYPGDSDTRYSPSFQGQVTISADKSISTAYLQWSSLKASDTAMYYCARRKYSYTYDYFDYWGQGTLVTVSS VL: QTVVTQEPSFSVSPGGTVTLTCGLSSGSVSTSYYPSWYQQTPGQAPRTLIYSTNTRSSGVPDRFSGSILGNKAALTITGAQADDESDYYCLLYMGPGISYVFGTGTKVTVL
Criterion not met

Is koff at least 0.07 s⁻¹? Consider Fab VH5-51_IGHD5-18*01>3_IGHJ4*01 G100K/G104T G24T/S28R/G35V & V3-4_IGLJ1*01 V91L/S96P S52G (Fab, V domains shown, Fab made in E. coli: VH on CH1 with His6 and Flag tags (Plasmid A), VL on lambda CL (Plasmid E); also called H: KT TRV & L: LP S52G) VH: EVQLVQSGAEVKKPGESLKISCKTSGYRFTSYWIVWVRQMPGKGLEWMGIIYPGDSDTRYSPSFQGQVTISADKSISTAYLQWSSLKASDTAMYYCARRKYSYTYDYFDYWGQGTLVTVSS VL: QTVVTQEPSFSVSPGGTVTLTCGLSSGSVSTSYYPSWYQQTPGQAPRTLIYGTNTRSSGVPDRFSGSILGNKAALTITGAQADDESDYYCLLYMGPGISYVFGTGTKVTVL
Criterion not met

Is koff at least 0.07 s⁻¹? Consider Fab VH5-51_IGHD5-18*01>3_IGHJ4*01 G100K/G104T S28R & V3-4_IGLJ1*01 (Fab, V domains shown, Fab made in E. coli: VH on CH1 with His6 and Flag tags (Plasmid A), VL on lambda CL (Plasmid E); also called H: KT S28R & L: wt) VH: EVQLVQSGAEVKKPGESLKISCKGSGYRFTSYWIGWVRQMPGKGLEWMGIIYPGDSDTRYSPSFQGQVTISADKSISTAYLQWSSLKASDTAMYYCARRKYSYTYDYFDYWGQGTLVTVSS VL: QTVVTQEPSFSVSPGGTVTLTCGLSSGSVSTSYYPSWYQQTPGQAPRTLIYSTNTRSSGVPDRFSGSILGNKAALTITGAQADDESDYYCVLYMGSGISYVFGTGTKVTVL
Criterion met
